The origin of these recorded values is the kinase profiling compilation of Christmann-Franck et al. (2016).

Tested on: ROCK2 (rat)
Experiment: radiometric filter-binding kinase assay
Settings: compound 1.0 µM; accession and sequence are those of the human protein
quantity: residual activity (%)
One number for each entry, in %.

Solved cases below.
molecule="C=C1C(=O)OC2C1CC/C(C)=C/CCC1(C)OC21 (stereo unspecified)" quantity="residual activity" assayvalue=123
molecule=O=C(O)c1ccc(-c2c[nH]c3ncc(-c4ccccc4)cc23)cc1C1CCCC1 quantity="residual activity" assayvalue=59
molecule=CCn1c(-c2nonc2N)nc2cncc(CNC3CCNCC3)c21 quantity="residual activity" assayvalue=23

Report residual activity for each item below.
1. Cc1cc(SCc2sc(-c3ccc(C(F)(F)F)cc3)nc2C)ccc1OCC(=O)O
2. NC1(c2ccc(-c3nc4ccn5c(=O)[nH]nc5c4cc3-c3ccccc3)cc2)CCC1
3. COc1cc(O)c2c(c1)/C=C/C[C@H](O)[C@H](O)C(=O)/C=C\C[C@H](C)OC2=O

[99, 87, 83]

###

Molecular target: TLK1 (human)
Assay: radiometric filter-binding kinase assay
Details: compound 10.0 µM
Hi there, I'd appreciate the recorded residual activity for every entry that follows.
One number for each entry, in %.

For each of the items listed, what is its residual activity?
1. NCC(=O)Nc1ccc(-n2nc(C(F)(F)F)cc2-c2ccc3c(ccc4ccccc43)c2)cc1
2. CCNc1nc(Nc2cc(F)c(C(=O)N3CCOCC3)cc2OC)ncc1C(F)(F)F

104
101

###

Target: MAP3K7 TAB1 (human) (UniProt Q15750+O43318)
Sequence (O43318 whole entry, looked up): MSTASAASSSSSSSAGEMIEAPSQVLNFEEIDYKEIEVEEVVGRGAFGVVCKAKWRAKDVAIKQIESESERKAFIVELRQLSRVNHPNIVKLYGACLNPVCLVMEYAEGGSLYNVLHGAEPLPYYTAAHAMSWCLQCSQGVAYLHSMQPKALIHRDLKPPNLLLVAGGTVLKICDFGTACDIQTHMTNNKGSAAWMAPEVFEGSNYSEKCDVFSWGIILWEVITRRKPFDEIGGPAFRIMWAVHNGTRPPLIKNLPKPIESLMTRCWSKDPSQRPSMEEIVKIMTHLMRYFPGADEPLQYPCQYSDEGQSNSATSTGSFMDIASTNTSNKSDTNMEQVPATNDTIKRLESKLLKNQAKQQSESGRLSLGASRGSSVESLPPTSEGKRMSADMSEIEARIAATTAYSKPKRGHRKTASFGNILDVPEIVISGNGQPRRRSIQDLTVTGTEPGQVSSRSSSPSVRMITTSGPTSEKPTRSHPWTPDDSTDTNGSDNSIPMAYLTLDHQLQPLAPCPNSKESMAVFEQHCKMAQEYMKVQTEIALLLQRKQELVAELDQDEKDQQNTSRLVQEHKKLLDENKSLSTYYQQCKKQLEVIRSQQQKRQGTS
Sequence (Q15750 whole entry, looked up): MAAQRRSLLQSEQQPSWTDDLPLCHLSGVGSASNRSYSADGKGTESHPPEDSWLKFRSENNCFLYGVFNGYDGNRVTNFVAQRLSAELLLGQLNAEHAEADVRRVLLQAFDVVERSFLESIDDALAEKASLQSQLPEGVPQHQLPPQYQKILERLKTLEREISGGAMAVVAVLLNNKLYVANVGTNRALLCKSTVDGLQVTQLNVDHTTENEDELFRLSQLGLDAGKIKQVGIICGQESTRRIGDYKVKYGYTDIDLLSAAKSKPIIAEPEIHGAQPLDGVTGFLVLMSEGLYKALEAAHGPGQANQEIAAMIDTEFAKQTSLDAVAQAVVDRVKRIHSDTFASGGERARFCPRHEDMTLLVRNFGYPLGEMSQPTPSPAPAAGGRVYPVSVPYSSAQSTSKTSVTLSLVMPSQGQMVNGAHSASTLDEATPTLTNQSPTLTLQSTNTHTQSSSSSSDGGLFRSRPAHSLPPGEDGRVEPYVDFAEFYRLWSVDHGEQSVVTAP
Test: radiometric filter-binding kinase assay
Conditions: compound 1.0 µM
quantity: residual activity (%)
One number for each entry, in %.

// known answers, use as guide
compound=FC(F)(F)c1ccc(-c2ccc(Oc3cncc4sc(-c5nn[nH]n5)cc34)cc2)cc1 quantity="residual activity" assayvalue=104
compound=O=C(NOC[C@H](O)CO)c1ccc(F)c(F)c1Nc1ccc(I)cc1Cl quantity="residual activity" assayvalue=77
compound=N#Cc1c(C2CCNCC2)cc(-c2c(O)cccc2OCC2CC2)nc1N quantity="residual activity" assayvalue=73
compound=NC(=O)c1ccc(-c2ccc(Oc3cncc4sc(-c5nn[nH]n5)cc34)cc2)cc1 quantity="residual activity" assayvalue=82
compound=CC(C)(C#N)c1ccc(N2C(=O)OCc3cnc4ccc(-c5cnc6ccccc6c5)cc4c32)cc1 quantity="residual activity" assayvalue=64
compound="Nc1cccc2c1CN(C1CCC(=O)NC1=O)C2=O (configuration not stated)" quantity="residual activity" assayvalue=99
compound=CCNc1nc(Nc2cc(F)c(C(=O)N3CCOCC3)cc2OC)ncc1C(F)(F)F quantity="residual activity" assayvalue=17
compound="CC1=C(CO)C(=O)O[C@@H]([C@@H](C)[C@H]2CC[C@H]3[C@@H]4C[C@H]5O[C@]56[C@@H](O)C=CC(=O)[C@]6(C)C4CC[C@]23C)C1 (some centres not stated)" quantity="residual activity" assayvalue=104

// each listed compound needs a value for residual activity
1. CCCCCc1ccc(/C=C/[C@H](O)[C@@H](CO)NC)cc1
2. C=C1C(=O)OC2C1CC/C(C)=C/CCC1(C)OC21 (configuration not stated)
3. O=C(Nc1cccnc1)c1cc(-c2ccnc(F)c2)ccc1OCc1ccccc1
4. Cc1ccc(-c2ccc3c(ccc4sc5c(c43)NC[C@@H](C)NC5=O)n2)cn1

1: 108; 2: 109; 3: 108; 4: 109

###

Target: UniProt:Q9H2X6
Sequence (Q9H2X6 whole entry, looked up): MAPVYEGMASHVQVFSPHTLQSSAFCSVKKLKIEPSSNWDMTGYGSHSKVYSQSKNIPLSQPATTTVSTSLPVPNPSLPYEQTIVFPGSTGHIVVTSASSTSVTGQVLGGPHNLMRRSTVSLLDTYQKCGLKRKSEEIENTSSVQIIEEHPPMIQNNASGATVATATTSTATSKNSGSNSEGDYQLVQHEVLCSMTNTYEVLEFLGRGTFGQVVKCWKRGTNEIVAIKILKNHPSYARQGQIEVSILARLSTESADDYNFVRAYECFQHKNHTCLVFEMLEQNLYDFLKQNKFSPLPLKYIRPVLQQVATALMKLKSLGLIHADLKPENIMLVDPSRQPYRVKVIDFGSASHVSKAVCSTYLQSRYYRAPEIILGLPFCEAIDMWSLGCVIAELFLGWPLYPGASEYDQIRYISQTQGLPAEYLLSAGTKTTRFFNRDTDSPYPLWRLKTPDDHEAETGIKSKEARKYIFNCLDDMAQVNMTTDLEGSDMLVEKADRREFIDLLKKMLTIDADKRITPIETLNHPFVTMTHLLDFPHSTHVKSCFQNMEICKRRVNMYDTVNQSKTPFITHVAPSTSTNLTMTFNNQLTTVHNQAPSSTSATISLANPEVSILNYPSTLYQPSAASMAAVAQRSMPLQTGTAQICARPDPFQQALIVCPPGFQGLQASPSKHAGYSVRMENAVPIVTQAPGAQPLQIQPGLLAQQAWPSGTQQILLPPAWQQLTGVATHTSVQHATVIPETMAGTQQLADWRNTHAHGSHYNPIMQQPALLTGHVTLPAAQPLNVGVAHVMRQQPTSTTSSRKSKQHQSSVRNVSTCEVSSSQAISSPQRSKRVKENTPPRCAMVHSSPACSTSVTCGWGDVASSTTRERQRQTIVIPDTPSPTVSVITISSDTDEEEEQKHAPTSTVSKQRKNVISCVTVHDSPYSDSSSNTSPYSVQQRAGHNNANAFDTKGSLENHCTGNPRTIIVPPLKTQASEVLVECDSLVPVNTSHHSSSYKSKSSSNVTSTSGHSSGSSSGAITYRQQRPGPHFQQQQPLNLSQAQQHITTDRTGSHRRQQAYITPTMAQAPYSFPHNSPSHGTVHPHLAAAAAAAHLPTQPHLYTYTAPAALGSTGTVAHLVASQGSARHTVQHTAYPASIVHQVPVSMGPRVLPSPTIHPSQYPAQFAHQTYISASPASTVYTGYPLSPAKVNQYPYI
Experiment: radiometric filter-binding kinase assay
Settings: compound 1.0 µM
Provide the reported residual activity of each item.
Answers are plain numbers, in %.

Answered cases to consult:
molecule=NC(=O)c1cc(-c2ccnc(NC3CCCCC3)c2)nc(N2CCNCC2)c1 targetortestsystem=UniProt:Q9H2X6 assayvalue=125
molecule=NC(=O)c1c(NC(=O)C2CC2)sc2c1CCCC2 targetortestsystem=UniProt:Q9H2X6 assayvalue=94
molecule=Oc1ccc2ccccc2c1SSc1c(O)ccc2ccccc12 targetortestsystem=UniProt:Q9H2X6 assayvalue=24
molecule=NC(=O)Nc1ccc2c(c1)/C(=C/c1cc(-c3cccnc3)c[nH]1)C(=O)N2 targetortestsystem=UniProt:Q9H2X6 assayvalue=7
molecule=Cc1nc(-c2ccc(OCC(C)C)c(C#N)c2)sc1C(=O)O targetortestsystem=UniProt:Q9H2X6 assayvalue=100
molecule="CC1=C(CO)C(=O)O[C@@H]([C@@H](C)[C@H]2CC[C@H]3[C@@H]4C[C@H]5O[C@]56[C@@H](O)C=CC(=O)[C@]6(C)C4CC[C@]23C)C1 (stereo partly specified)" targetortestsystem=UniProt:Q9H2X6 assayvalue=113
molecule=O=C(Nc1nc2cc(C(F)(F)F)cc(NC3CC3)n2n1)c1cccnc1 targetortestsystem=UniProt:Q9H2X6 assayvalue=105
molecule="C=C1C(=O)OC2C1CC/C(C)=C/CCC1(C)OC21 (stereo unspecified)" targetortestsystem=UniProt:Q9H2X6 assayvalue=124

Parameters: items (list). Returns: residual activity for each item.
1. Cc1cc(SCc2sc(-c3ccc(C(F)(F)F)cc3)nc2C)ccc1OCC(=O)O
2. Cc1ccc(-c2ccc3c(ccc4sc5c(c43)NC[C@@H](C)NC5=O)n2)cn1
3. CCc1cncnc1N1CCN(Cc2nc3cc(C(F)(F)F)ccc3[nH]2)CC1

1: 101; 2: 113; 3: 86

###

Target: HIPK2 (human)
Assay: radiometric filter-binding kinase assay
Settings: compound 1.0 µM
Label scheme for residual activity: lower than 80% is false, 80% and above is true.

Previously resolved entries follow.
compound=CC(C)(C#N)c1ccc(N2C(=O)OCc3cnc4ccc(-c5cnc6ccccc6c5)cc4c32)cc1 assignedclass=true
compound="COc1ccc2c(c1)c1c3c(c4c5ccccc5n(C)c4c1n2CC(O)CN(C)C)C(=O)NC3=O (stereo not given)" assignedclass=false

Let's switch to this compound now.
Say whether `CNc1nc(-c2ccc3c(N)n[nH]c3c2)cc(N2C[C@@H](C(=O)NC3CCCCC3)CC[C@H]2C)n1` shows residual activity of 80% or more.
true

###

Target: DYRK3 (human) (UniProt O43781)
Sequence (O43781 whole entry, looked up): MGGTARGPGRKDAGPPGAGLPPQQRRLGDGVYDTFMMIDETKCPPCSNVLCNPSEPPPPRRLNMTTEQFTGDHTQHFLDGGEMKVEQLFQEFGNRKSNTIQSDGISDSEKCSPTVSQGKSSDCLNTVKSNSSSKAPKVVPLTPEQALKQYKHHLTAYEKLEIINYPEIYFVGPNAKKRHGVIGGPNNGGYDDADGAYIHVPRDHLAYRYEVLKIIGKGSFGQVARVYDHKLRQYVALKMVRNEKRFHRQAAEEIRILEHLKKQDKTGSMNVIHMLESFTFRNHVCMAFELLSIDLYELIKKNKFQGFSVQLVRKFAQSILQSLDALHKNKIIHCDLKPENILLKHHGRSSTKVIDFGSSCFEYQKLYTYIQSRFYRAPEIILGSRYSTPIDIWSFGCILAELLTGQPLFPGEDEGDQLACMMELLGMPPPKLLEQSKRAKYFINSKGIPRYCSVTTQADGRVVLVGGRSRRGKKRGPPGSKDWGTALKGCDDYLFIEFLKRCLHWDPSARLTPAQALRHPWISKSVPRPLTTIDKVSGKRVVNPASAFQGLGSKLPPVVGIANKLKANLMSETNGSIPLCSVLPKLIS
Assay: radiometric filter-binding kinase assay
Details: compound 1.0 µM
Is residual activity at least 90%? Then true. If not, false.

Before answering, review these 3 worked examples.
molecule="O=C1Nc2nc(-c3c(O)cccc3OCC3CC3)cc(C3CCCNC3)c2CO1 (configuration not stated)" assignedclass=false
molecule=COc1cc2ncn(-c3cc(OCc4ccccc4S(C)(=O)=O)c(C#N)s3)c2cc1OC assignedclass=false
molecule=NC(=O)c1cc(-c2ccnc(NC3CCCCC3)c2)nc(N2CCNCC2)c1 assignedclass=false

Identify whether the reported residual activity of the following molecule is 90% or greater: `NC(=O)c1ccc(-c2ccc(Oc3cncc4sc(-c5nn[nH]n5)cc34)cc2)cc1`
false

Is reported residual activity greater than or equal to 90% here: `Cc1nc(-c2ccc(OCC(C)C)c(C#N)c2)sc1C(=O)O`
false

Threshold query (residual activity >= 90%) on `NC(=O)c1c(NC(=O)C2CC2)sc2c1CCCC2`
true

Dear colleague, could you confirm whether `Cc1cc(SCc2sc(-c3ccc(C(F)(F)F)cc3)nc2C)ccc1OCC(=O)O` has residual activity at or above 90%?
false

Does C=C1C(=O)OC2C1CC/C(C)=C/CCC1(C)OC21 (configuration not stated) have a reported residual activity of at least 90%?
true

###

Molecular target: NEK2 (human) (UniProt P51955)
Sequence (P51955 whole entry, looked up): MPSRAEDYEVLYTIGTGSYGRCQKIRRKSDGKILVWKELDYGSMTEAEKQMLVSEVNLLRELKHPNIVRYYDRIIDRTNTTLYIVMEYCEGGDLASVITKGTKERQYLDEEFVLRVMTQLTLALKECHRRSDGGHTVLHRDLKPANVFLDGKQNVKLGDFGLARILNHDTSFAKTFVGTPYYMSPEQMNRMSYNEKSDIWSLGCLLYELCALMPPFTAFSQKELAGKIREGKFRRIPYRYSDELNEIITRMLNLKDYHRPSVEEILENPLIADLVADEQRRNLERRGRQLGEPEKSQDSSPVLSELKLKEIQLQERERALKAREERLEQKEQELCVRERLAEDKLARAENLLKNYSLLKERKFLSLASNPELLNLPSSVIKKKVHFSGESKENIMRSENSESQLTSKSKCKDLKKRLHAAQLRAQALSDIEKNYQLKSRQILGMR
Assay: radiometric filter-binding kinase assay
Conditions: compound 10.0 µM
Sorting guide: entries reporting residual activity beneath 90% go in the condition met pile, the rest go in the condition not met pile.

Some solved cases for reference:
molecule=C[C@H]1CCCC(=O)CCC/C=C/c2cc(O)cc(O)c2C(=O)O1 assignedclass="condition not met"
molecule="COc1ccc2c(c1)c1c3c(c4c5ccccc5n(C)c4c1n2CC(O)CN(C)C)C(=O)NC3=O (stereo not given)" assignedclass="condition met"

Find out if reported residual activity for `O=S(=O)(c1ccc(F)c2nonc12)N1CCN(c2ncc(C(F)(F)F)cc2Cl)CC1` is less than 90%
condition not met

For `O=C(O)c1ccc(-c2c[nH]c3ncc(-c4ccccc4)cc23)cc1C1CCCC1` , is the recorded residual activity below the cut-off of 90%?
condition met

Does this molecule meet the criterion residual activity < 90%? `NC1(c2ccc(-c3nc4ccn5c(=O)[nH]nc5c4cc3-c3ccccc3)cc2)CCC1`
condition met

###

Target: NUAK1 (human)
Test: radiometric filter-binding kinase assay
Details: compound 1.0 µM
Assign class by residual activity: not lower than 40% means fulfilled; lower than 40% means not fulfilled.

Observe how each entry below is paired with its result.
compound=O=C(NCCCNc1nc(Nc2cccc(CN3CCOCC3)c2)ncc1C1CC1)C1CCC1 assignedclass="not fulfilled"
compound=COc1cc2ncn(-c3cc(OCc4ccccc4S(C)(=O)=O)c(C#N)s3)c2cc1OC assignedclass="not fulfilled"
compound=Cc1ccc(Sc2cnc(Nc3cccc(Br)n3)s2)cc1C(=O)N1CCN(C(=O)CN)CC1 assignedclass="not fulfilled"
compound="CNC(=O)C1[C@H]2O[C@@](C)([C@@H]1N)n1c3ccccc3c3c4c(c5c6ccccc6n2c5c31)C(=O)NC4 (stereo partly specified)" assignedclass="not fulfilled"
compound=Cc1cccc(-c2nn(C(=S)Nc3ccccc3)cc2-c2ccnc3ccccc23)n1 assignedclass=fulfilled

Pending compound:
Is reported residual activity greater than or equal to 40% here: Nc1cccc2c1CN(C1CCC(=O)NC1=O)C2=O (stereo unspecified)
fulfilled
